- Tested on: Bacillus cereus
- assay overview: Compound was tested for the inhibition of Phosphoinositide specific phospholipase C (PI-PLC) in the presence of buffer at concentration of 40.0 mM
- Set-up: scale not given: the % may be the effect or the level left
In this section, each of the compounds is paired with its reported Activity.
Respond numerically; units are % and should not be typed.

Known results for compounds:
O=P(O)(O)OC1C(O)C(O)C(O)C(O)C1O (stereo in doubt; form 1) = 69
CCCCCCOCC(CCP(=O)(O)OC1C(O)C(O)C(O)C(O)C1O)OCCCCCC (centres undefined) = 25
CCCCCCCCOCC(COP(=O)(O)OC)OCCCCCCCC (centres undefined) = 14

Continue with the next compound.
Any idea what its Activity is? The compound is "O[C@H]1[C@H](O)[C@@H](O)[C@H](O)[C@@H](O)[C@H]1O"
18
